Source listed as the RNAGym collection of RNA variant scans (doi:10.1093/molbev/msab373).

B1: Azoarcus group I ribozyme (parent)
chain: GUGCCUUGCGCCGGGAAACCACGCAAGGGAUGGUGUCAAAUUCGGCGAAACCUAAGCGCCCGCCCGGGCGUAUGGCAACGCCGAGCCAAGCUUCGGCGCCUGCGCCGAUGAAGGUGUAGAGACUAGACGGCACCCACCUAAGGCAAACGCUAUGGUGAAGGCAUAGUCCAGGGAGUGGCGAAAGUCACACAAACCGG

variants of: B1; assay: reverse-splicing fitness (ratio to wild type); higher = more active; in vitro selection; Mg2+ level not given
Assignment: determine reported reverse-splicing fitness for the given variants.

Below: 6 variants and their reported reverse-splicing fitness.
Req: Note down reverse-splicing fitness recorded for C82A A111C A120G A145U C150G C169G U176A
Resp: 0.00626

Req: Note down reverse-splicing fitness recorded for C82G A111C A120U A145U C169G
Resp: 0.00373

Req: Note down reverse-splicing fitness recorded for A111G A120G A145C C169U U176A
Resp: 0.0733

Req: Note down reverse-splicing fitness recorded for C82A A111C A120U A145G C150G C169U U176A
Resp: 0.00855

Req: Note down reverse-splicing fitness recorded for A120G A145G C150A
Resp: 0.0988

Req: Note down reverse-splicing fitness recorded for C82A A120C A145C C150G C169U U176G
Resp: 0.00498

Working through the 2 variants below one at a time, give reverse-splicing fitness for each.
1. A111C A145G C150U U176A
2. C82U A111G C169U U176G

Resp:
[0.313, 0.00449]

Working through the 7 variants below one at a time, give reverse-splicing fitness for each.
1. C82G A111G A120C C150U C169U U176G
2. C82U A111U A120U A145G C150G C169G U176C
3. A120G C150G C169U U176C
4. C82U A120U A145G C150G C169G U176A
5. C82A A111G A120G A145U C150G U176C
6. C82G A111U A120G A145G C150A U176A
7. C82U A111U A120C A145U C150G C169G U176A

Resp:
[0.00815, 0.00477, 0.0422, 0.00758, 0.00837, 0.011, 0.00657]

Working through the 3 variants below one at a time, give reverse-splicing fitness for each.
1. C82G A120C A145U C169A U176G
2. C82U A111G A120U A145G C150A C169G
3. C82A A111C A145C C150G

Resp:
0.00379
0.00549
0.0226

Working through the 4 variants below one at a time, give reverse-splicing fitness for each.
1. A111C A120C A145C C150G C169A U176A
2. C82U A120G A145U C150U C169G U176A
3. C82A A111U A145G C150G C169A
4. C82U A120G A145C C150U C169G U176A

Resp:
1: 0.0076; 2: 0.0116; 3: 0.0097; 4: 0.0197
